biological target: wild-type human cardiac sodium channel, hNav1.5 (Homo sapiens); assay: Late INa screening assay (PatchXpress whole cell patch clamp, late current generated with Tefluthrin or ATX II); type: cell-based; details: test compound at 10 μM
Sequence (Q14524 whole entry): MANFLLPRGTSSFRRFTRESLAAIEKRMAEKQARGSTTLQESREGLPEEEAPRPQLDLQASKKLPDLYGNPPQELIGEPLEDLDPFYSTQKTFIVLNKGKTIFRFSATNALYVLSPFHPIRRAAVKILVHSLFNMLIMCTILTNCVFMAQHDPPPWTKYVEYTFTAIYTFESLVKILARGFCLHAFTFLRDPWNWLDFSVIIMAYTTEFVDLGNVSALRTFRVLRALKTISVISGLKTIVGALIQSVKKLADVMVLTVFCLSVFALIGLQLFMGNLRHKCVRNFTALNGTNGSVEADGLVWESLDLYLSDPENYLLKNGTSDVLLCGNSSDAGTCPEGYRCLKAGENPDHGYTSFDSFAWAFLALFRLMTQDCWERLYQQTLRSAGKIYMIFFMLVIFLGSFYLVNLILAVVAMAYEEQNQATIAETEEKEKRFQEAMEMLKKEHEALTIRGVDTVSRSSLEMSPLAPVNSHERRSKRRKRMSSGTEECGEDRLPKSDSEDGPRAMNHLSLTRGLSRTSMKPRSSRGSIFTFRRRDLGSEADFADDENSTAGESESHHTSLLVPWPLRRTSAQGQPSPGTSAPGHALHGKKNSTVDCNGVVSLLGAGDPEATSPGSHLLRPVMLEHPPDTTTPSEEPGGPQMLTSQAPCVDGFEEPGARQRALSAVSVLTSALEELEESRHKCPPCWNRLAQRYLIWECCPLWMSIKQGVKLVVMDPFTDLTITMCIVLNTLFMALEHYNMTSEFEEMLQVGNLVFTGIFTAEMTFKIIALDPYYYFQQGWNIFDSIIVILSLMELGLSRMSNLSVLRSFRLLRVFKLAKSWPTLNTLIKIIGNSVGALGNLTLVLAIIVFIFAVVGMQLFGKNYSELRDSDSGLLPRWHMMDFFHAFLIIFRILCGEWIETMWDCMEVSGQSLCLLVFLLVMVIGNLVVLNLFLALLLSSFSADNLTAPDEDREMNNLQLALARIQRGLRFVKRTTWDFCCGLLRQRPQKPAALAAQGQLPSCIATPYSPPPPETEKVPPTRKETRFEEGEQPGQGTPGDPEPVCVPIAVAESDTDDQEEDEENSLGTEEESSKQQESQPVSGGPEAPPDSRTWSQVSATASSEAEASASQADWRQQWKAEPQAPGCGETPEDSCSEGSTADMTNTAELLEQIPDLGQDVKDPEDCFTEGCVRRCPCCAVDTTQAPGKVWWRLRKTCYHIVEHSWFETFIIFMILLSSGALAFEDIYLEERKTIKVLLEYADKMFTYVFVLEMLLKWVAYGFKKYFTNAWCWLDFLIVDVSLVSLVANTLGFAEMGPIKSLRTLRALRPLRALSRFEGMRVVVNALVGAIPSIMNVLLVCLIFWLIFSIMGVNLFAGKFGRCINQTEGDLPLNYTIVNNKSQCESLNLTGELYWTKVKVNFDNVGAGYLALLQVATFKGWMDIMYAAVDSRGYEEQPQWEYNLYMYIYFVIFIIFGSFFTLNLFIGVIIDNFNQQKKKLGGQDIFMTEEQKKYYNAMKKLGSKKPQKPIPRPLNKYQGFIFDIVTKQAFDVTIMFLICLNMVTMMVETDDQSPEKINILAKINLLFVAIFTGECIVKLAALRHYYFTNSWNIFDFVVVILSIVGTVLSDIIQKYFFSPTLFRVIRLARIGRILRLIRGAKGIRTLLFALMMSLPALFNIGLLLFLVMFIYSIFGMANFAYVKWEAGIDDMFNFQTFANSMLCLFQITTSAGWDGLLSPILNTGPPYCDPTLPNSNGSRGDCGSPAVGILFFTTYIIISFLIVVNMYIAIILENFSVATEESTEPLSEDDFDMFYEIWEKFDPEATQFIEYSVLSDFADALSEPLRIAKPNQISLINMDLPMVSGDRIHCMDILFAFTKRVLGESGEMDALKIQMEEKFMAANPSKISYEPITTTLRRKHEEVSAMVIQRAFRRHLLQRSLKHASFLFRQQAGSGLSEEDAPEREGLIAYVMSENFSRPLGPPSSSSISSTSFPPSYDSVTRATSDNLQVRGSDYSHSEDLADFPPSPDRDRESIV
Measured property: Late INa % blk (%)
Express it in %; write the number only.

// worked examples, Late INa % blk included
> print(dat)
                                   molecule                           target.of.assay  measured.property  measured.number
1  COC(=O)C1=C(C)N(CC(=O)O)c2nnnn2C1c1sc2ccccc2c1Br (centres unmarked)  wild-type human cardiac sodium channel, hNav1.5 (Homo sapiens)     Late INa % blk               12
2  CC1=C(C(=O)O[C@@H](C)c2ccccc2)C(c2cc3ccccc3o2)n2nnnc2N1 (some centres unmarked)  wild-type human cardiac sodium channel, hNav1.5 (Homo sapiens)     Late INa % blk             57.7

-- ask Recorded Late INa % blk for CC1=C(C(=O)O[C@H](C)c2ccccc2)C(c2cccc3ccccc23)n2nnnc2N1 (some centres unmarked) with wild-type human cardiac sodium channel, hNav1.5 (Homo sapiens), please?
-- reply 67.4

-- ask Recorded Late INa % blk for CC1=C(C(=O)O[C@@H](C)c2ccccc2)C(c2sc3ccccc3c2C)c2cn[nH]c2N1 (some centres unmarked) with wild-type human cardiac sodium channel, hNav1.5 (Homo sapiens), please?
-- reply 66.7

-- ask Recorded Late INa % blk for CC1=C(C(=O)O[C@@H](C)c2ccccc2)C(c2cc3ccccc3s2)n2nnnc2N1 (some centres unmarked) with wild-type human cardiac sodium channel, hNav1.5 (Homo sapiens), please?
-- reply 7.8

----------
hERG Patch Clamp hERG % blk (1 μM test cmpd) values by entry
molecular target: hERG potassium channel (Homo sapiens, UniProt Q12809); assay: hERG screening assay (PatchXpress patch clamp, CHO cells); conditions: 1 μM test cmpd
Sequence (Q12809 whole entry): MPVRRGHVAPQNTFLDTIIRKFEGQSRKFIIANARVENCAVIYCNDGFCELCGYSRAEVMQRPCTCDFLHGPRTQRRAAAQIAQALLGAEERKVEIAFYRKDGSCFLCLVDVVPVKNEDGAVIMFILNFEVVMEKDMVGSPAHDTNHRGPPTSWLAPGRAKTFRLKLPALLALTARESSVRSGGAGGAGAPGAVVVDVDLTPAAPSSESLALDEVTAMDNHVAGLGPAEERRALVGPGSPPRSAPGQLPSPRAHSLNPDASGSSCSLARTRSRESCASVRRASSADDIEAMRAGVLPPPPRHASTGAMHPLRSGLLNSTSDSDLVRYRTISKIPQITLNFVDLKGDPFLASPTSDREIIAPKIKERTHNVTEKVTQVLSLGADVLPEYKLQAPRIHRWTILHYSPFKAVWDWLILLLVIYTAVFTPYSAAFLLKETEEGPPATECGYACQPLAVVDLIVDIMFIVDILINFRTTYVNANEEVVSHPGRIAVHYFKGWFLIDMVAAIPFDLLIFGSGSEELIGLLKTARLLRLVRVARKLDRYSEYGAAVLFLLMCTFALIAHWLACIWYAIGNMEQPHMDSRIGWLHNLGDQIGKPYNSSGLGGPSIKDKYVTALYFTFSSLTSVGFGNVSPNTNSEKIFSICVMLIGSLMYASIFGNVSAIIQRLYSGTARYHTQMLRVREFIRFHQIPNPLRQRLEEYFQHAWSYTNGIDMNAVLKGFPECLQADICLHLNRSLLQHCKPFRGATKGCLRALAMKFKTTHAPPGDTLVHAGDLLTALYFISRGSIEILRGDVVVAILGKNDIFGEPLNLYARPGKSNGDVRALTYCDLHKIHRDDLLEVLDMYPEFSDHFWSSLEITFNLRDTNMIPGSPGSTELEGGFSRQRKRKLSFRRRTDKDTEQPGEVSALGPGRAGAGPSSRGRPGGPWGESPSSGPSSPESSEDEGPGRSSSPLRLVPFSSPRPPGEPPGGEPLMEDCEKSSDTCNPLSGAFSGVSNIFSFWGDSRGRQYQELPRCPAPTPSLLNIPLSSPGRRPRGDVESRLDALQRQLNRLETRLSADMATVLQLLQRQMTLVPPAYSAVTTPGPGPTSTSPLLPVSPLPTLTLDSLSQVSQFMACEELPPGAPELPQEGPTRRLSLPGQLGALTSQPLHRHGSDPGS
Express it in %; write the number only.

// worked examples, hERG Patch Clamp hERG % blk (1 μM test cmpd) included
> print(dat)
                                   compound  measured.number
1  CCOC(=O)C1=C(C)Nc2[nH]ncc2C1c1ccc(OC)cc1OCc1ccccc1 (stereo not drawn)             10.5
2  CCOC(=O)C1=C(C)NC2=C(C(=O)CCC2)C1c1ccco1 (stereo not drawn)             10.5
3  CCCC1=C(C(=O)OCC)C(c2ccsc2)C2=C(CC(c3ccccc3)CC2=O)N1 (stereo not drawn)               46

-- ask Query: hERG Patch Clamp hERG % blk (1 μM test cmpd); subject: CC1=C(C(=O)OCc2ccccc2)C(c2ccc3ccccc3c2)C2=C(CCCC2=O)N1 (stereo not drawn)
-- reply 10

-- ask Query: hERG Patch Clamp hERG % blk (1 μM test cmpd); subject: CC1=C(C(=O)OCc2ccccc2)C(c2ccccc2-c2ccc(NS(C)(=O)=O)cc2)n2nnnc2N1 (stereo not drawn)
-- reply 13

-- ask Query: hERG Patch Clamp hERG % blk (1 μM test cmpd); subject: CC1=C(C(=O)OCc2ccccc2)C(c2cc3ccccc3o2)n2nnnc2N1 (stereo not drawn)
-- reply 10

-- ask Query: hERG Patch Clamp hERG % blk (1 μM test cmpd); subject: CCOC(=O)C1=C(C)Nc2nnnn2C1c1ccccc1-n1ccnc1C.Cl (stereo not drawn)
-- reply 10

-- ask Query: hERG Patch Clamp hERG % blk (1 μM test cmpd); subject: CCOC(=O)C1=C(C)NC(C)=C(C(=O)OCC)C1c1ccccc1Br
-- reply 10

-- ask Query: hERG Patch Clamp hERG % blk (1 μM test cmpd); subject: CC1=C(C(=O)OCc2ccccc2)C(c2ccccc2-c2ccc(C(=O)O)cc2)n2nnnc2N1 (stereo not drawn)
-- reply 15

----------
ICaL Patch Clamp Assay 10 μM % blk values by entry
target: human cardiac L-type calcium channels (hCav1.2, coexpressed with the beta 2 subunit) (Homo sapiens); construct: expressed in transfected cells; experiment: L-type calcium channel patch clamp screening assay (ICaL, HEK293); assay type: cell-based; conditions: 10 μM test compound; hCav1.2 in HEK293; percentage of current inhibited at steady state
Express it in %; write the number only.

> print(dat)
                                   compound  unit.abbrev  measured.number
1  CCOC(=O)C1=C(C)NC(C)=C(C(=O)OCC)C1c1ccc(OC)cc1F            %             35.3
2  CCOC(=O)C1=C(C)NC(C)=C(C(=O)OCC)C1c1ccc(OC)cc1C#N            %              2.4
3  CCOC(=O)C1=C(C)NC(C)=C(C(=O)OCC)C1c1ccccc1Br            %             98.6
4  CC1=C(C(=O)OCc2ccccc2)C(c2ccc(N(C)C)cc2[N+](=O)[O-])n2nnnc2N1 (centres unmarked)            %             19.9

As a next step, examine the compound that follows.
-- ask Query: ICaL Patch Clamp Assay 10 μM % blk; subject: CCOC(=O)C1=C(C)NC(C)=C(C(=O)OCC)C1c1ccc(N(C)C)cc1[N+](=O)[O-]
-- reply 13.2

----------
tested on: L-type calcium channel; test: L-type calcium channel activity well-plate assay (IMR-32 cells, Ca-4 dye, FlexStation); assay type: cell-based, human; conditions: 1 μM test cmpd
CaL Plate Assay % blk (1 μM test cmpd) values by entry
Express it in %; write the number only.

// worked examples, CaL Plate Assay % blk (1 μM test cmpd) included
> print(dat)
                                   compound  unit.abbrev  measured.number
1  CCOC(=O)C1=C(C)NC2=C(C(=O)CCC2)C1c1ccco1 (centres unmarked) [PT-153]            %                3
2  CCOC(=O)C1=C(C)Nc2nc(C#N)c(C#N)n2C1c1cccc2ccccc12 (centres unmarked) [PT-194]            %               21
3  CC1=C(C(=O)OC(C)C)C(c2cccc3ccccc23)C(C(=O)OC(C)C)=C(C)N1 [PT-123]            %               59
4  N#CC1=C(N)OC2=C(C(=O)CCC2)C1c1ccsc1 (centres unmarked) [PT-100]            %                0

As a next step, examine the compound that follows.
-- ask Recorded CaL Plate Assay % blk (1 μM test cmpd) for CC1=C(C(=O)OCc2ccccc2)C(c2cc3ccccc3s2)n2nnnc2N1 (centres unmarked) [PT-043] with L-type calcium channel, please?
-- reply 23

----------
test system: L-type calcium channel; test: L-type calcium channel activity well-plate assay (IMR-32 cells, Ca-4 dye, FlexStation); format: cell-based, human; conditions: 1 μM test cmpd
Class condition met: CaL Plate Assay % blk (1 μM test cmpd) at least 4%. Class condition not met: CaL Plate Assay % blk (1 μM test cmpd) below 4%.

Illustrative cases are given below, each with its answer.
> print(dat)
                                   molecule        label.class
1  CC1=C(C(=O)NCc2ccccc2)C(c2ccsc2)C2=C(CCCC2=O)N1 (stereo not shown) [PT-178]      condition met
2  N#CC1=C(N)OC2=C(C(=O)CC(c3ccccc3)C2)C1c1ccco1 (stereo not shown) [PT-104]  condition not met
3  CCOC(=O)C1=C(C)NC(C)=C(C(=O)OCC)C1c1ccc2ccccc2c1 [PT-107]      condition met
4  CCOC(=O)C1=C(C)NC(C)=C(C(=O)OCC)C1c1cc2ccccc2o1 [PT-122]      condition met
5  CC1=C(C(=O)N2CCC(c3ccccc3)CC2)C(c2ccsc2)C2=C(CCCC2=O)N1 (stereo not shown) [PT-163]      condition met

-- ask Check this molecule for CaL Plate Assay % blk (1 μM test cmpd) at or above 4%: CC1=C(C(=O)OC(C)C)C(c2ccc3ccccc3c2)C2=C(CCCC2=O)N1 (stereo not shown) [PT-157]
-- reply condition not met

-- ask Check this molecule for CaL Plate Assay % blk (1 μM test cmpd) at or above 4%: CCOC(=O)C1=C(C(C)C)NC(C(C)C)=C(C(=O)OCC)C1c1ccc(Br)s1 [PT-183]
-- reply condition not met

-- ask Check this molecule for CaL Plate Assay % blk (1 μM test cmpd) at or above 4%: N#CC1=C(N)OC2=C(C(=O)CCC2)C1c1ccc(Br)cc1 (stereo not shown) [PT-096]
-- reply condition met

-- ask Check this molecule for CaL Plate Assay % blk (1 μM test cmpd) at or above 4%: CC1=C(C(=O)O[C@@H](C)c2ccccc2)C(c2cccc3ccccc23)n2nnnc2N1 (stereo partly shown) [PT-048]
-- reply condition not met

-- ask Check this molecule for CaL Plate Assay % blk (1 μM test cmpd) at or above 4%: CC1=C(C(=O)OC(C)C)C(c2ccc(Br)s2)C(C(=O)OC(C)C)=C(C)N1 [PT-124]
-- reply condition met

-- ask Check this molecule for CaL Plate Assay % blk (1 μM test cmpd) at or above 4%: CC1=C(C(=O)OCc2ccccc2)C(c2c3ccccc3cc3ccccc23)n2nnnc2N1 (stereo not shown) [PT-039]
-- reply condition not met
